For each of the molecules below, state its Selectivity ratio.
Assay: Ratio against rat A2A receptor and Human A3 receptor
Answers are plain numbers.

The following molecules have reported results that may help.
# smiles text, Selectivity ratio
data = [
    ("COC(=O)CCC(=O)Nc1nc2ccc(Cl)cc2c2nc(-c3ccco3)nn12", 0.52),
    ("NCCCC(=O)Nc1nc2ccc(Cl)cc2c2nc(-c3ccco3)nn12", 0.017),
    ("Clc1ccc2nc(NCc3ccccc3)n3nc(-c4ccco4)nc3c2c1", 4.7),
    ("C[C@H](C(=O)Nc1nc2ccc(Cl)cc2c2nc(-c3ccco3)nn12)c1ccccc1", 31),
]

From here, focus on the item given below.
Selectivity ratio for CC(C)(C)OC(=O)NCCCCCCC(=O)Nc1nc2ccc(Cl)cc2c2nc(-c3ccco3)nn12 ?
0.21

----------
Kindly state Selectivity ratio for each of the entries shown.
Test: Ratio against rat A2A receptor and Human A3 receptor
Numbers only.

# smiles text, result number
data = [
    ("O=C(Cc1ccc(I)cc1)Nc1nc2ccc(Cl)cc2c2nc(-c3ccco3)nn12", 0.16),
]

Items follow; give Selectivity ratio for each.
1. C[C@@H](N)C(=O)Nc1nc2ccc(Cl)cc2c2nc(-c3ccco3)nn12
2. CC(C)(C)OC(=O)NCCCC(=O)Nc1nc2ccc(Cl)cc2c2nc(-c3ccco3)nn12
3. NCCCCCC(=O)Nc1nc2ccc(Cl)cc2c2nc(-c3ccco3)nn12
4. C[C@H](N)C(=O)Nc1nc2ccc(Cl)cc2c2nc(-c3ccco3)nn12
5. NCCC(=O)Nc1nc2ccc(Cl)cc2c2nc(-c3ccco3)nn12

[0.026, 0.6, 0.048, 0.12, 0.0088]

Entry under review: CC(C)(C)OC(=O)NCCCCC(=O)Nc1nc2ccc(Cl)cc2c2nc(-c3ccco3)nn12 . Reported Selectivity ratio?
0.17
